Target: X-box-binding protein 1 (Homo sapiens)
Assay: ATG_Xbp1_CIS: Attagene CIS-FACTORIAL HepG2 Assay for human X-box Binding Protein 1 (XBP1) (AID 2282972)
Details: HepG2 XBP1 cis-element reporter, Attagene multiplex; actives raise or lower the signal
Active and inactive are the calls of the source. How the source made its calls: active means hit-call score of the fitted dose curve at least 0.9, where 1 is the maximum; inactive means score below 0.9.
Classes to choose from: Yes (active), No (inactive)

Example results:
compound	experimental_target	cat
CCCCCCCCCCCCc1ccc(O)cc1	X-box-binding protein 1 (Homo sapiens)	No
CC(C)c1ccc(O)c(C(C)C)c1	X-box-binding protein 1 (Homo sapiens)	No
CCC(C)(O)CCCC(C)C (centres undefined)	X-box-binding protein 1 (Homo sapiens)	No
O=C(Oc1ccccc1)c1ccccc1O	X-box-binding protein 1 (Homo sapiens)	No
OCCCc1ccccc1	X-box-binding protein 1 (Homo sapiens)	No

## Input Outcome logged for `CC(C)CCOCc1ccccc1` in this assay:
## Output No

## Input Entry `CC(=O)OCCc1ccccc1` : call = ?
## Output No

Values from PubChem BioAssay (EPA / NIEHS)
